Source: patent US20260176289A1

target: KRAS-G13D (Homo sapiens, UniProt P01116, G13D); experiment: SOS-catalyzed nucleotide exchange assay (Procedure A, TR-FRET), KRAS-G13D; assay type: biochemical; details: nucleotide exchange, Procedure A; read-out: KRAS G13D GNE IC50
Sequence (P01116 with tags, fused parts or gaps isoform P01116-2 G13D): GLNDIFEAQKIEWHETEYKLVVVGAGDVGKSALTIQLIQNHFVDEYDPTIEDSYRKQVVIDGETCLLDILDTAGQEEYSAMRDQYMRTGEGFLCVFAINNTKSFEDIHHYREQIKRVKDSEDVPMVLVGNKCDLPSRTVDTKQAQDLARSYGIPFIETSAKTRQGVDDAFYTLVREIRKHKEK
pIC50: −log10 of the molar value.

>  <COMPOUND>
Cc1cc2[nH]ncc2c(-c2nccc3c2sc2nc(OC[C@@]45CCCN4C[C@H](F)C5)nc(N4CCOC[C@@](C)(O)C4)c23)c1C1CC1

>  <pIC50>
7.84

$$$$
>  <COMPOUND>
CC(C)c1c(Cl)cc2[nH]ncc2c1-c1nccc2c1sc1nc(OC[C@@]34CCCN3C[C@H](F)C4)nc(N3CCOC[C@@](C)(O)C3)c12

>  <pIC50>
7.56

$$$$
>  <COMPOUND>
C=C(C)c1c(Cl)cc2[nH]ncc2c1-c1nccc2c1sc1nc(OC[C@@]34CCCN3C[C@H](F)C4)nc(N3CCOC[C@@](C)(O)C3)c12

>  <pIC50>
7.51

$$$$
>  <COMPOUND>
C[C@@]1(O)COCCN(c2nc(OC[C@@]34CCCN3C[C@H](F)C4)nc3sc4c(-c5c(C(F)F)c(Cl)cc6[nH]ncc56)nccc4c23)C1

>  <pIC50>
6.96

$$$$
>  <COMPOUND>
Cc1cc2[nH]ncc2c(-c2nccn3c2cc2nc(OC[C@]4(CN(C)C)CC4(F)F)nc(N4CCOC[C@@](C)(O)C4)c23)c1C1CC1

>  <pIC50>
7.10

$$$$
>  <COMPOUND>
Cc1cc2[nH]ncc2c(-c2nccc3c2oc2nc(OC[C@@]45CCCN4C[C@H](F)C5)nc(N4CCOC[C@@](C)(O)C4)c23)c1C(F)(F)F

>  <pIC50>
5.99

$$$$
>  <COMPOUND>
Cc1cc2[nH]ncc2c(-c2nccc3c4c(N5CC6CCC(F)(C5)N6)nc(OC[C@@]56CCCN5C[C@H](F)C6)nc4n(C)c23)c1C(F)(F)F (single isomer, unassigned)

>  <pIC50>
6.34

$$$$
>  <COMPOUND>
CC1(O)COCCN(c2nc(OCC34CCCN3CC(F)C4)nc3sc4c(-c5c(C6CC6)c(F)cc6[nH]ncc56)nccc4c23)C1 (centres unmarked)

>  <pIC50>
7.49

$$$$
>  <COMPOUND>
Cc1cc2[nH]nc(C#N)c2c(-c2nccc3c4c(N5CCOC[C@@](C)(O)C5)nc(OC[C@@]56CCCN5C[C@H](F)C6)nc4n(C)c23)c1C(F)F (single isomer, unassigned)

>  <pIC50>
6.25

$$$$
>  <COMPOUND>
Cc1cc2[nH]ncc2c(-c2nccc3c4c(N5CCOC[C@@](C)(O)C5)nc(OC[C@@]56CCCN5C[C@H](F)C6)nc4n(C)c23)c1C(F)F (single isomer, unassigned)

>  <pIC50>
7.03

$$$$
>  <COMPOUND>
Cc1cc2[nH]ncc2c(-c2nccc3c2oc2nc(OC[C@]4(CN(C)C)CC4(F)F)nc(N4CCOC[C@@](C)(O)C4)c23)c1C(F)F

>  <pIC50>
6.51

$$$$
>  <COMPOUND>
Cc1cc2[nH]ncc2c(-c2nccc3c2sc2nc(OC[C@@]45CCCN4C[C@H](F)C5)nc(NC4CCC4)c23)c1C(F)(F)F

>  <pIC50>
5.43

$$$$
>  <COMPOUND>
CN1CCC[C@@]2(COc3nc(N4CCOC[C@@](C)(O)C4)c4c(n3)sc3c(-c5c(C6(F)CC6)c(Cl)cc6[nH]ncc56)nccc34)CCC[C@@H]12

>  <pIC50>
7.99

$$$$
>  <COMPOUND>
C#Cc1cccc2cccc(-c3nccc4c3sc3nc(OC[C@@]56CCCN5C[C@H](F)C6)nc(N5CCOC[C@@](C)(O)C5)c34)c12

>  <pIC50>
6.54

$$$$
>  <COMPOUND>
C=Cc1c(C)cc2[nH]ncc2c1-c1nccc2c1sc1nc(OC[C@@]34CCCN3C[C@H](F)C4)nc(N3CCOC[C@@](C)(O)C3)c12

>  <pIC50>
7.33

$$$$
>  <COMPOUND>
C=C(C)c1c(C(F)(F)F)cc2[nH]ncc2c1-c1nccc2c1sc1nc(OCC34CCCN3CC(F)C4)nc(N3CCOCC(C)(O)C3)c12 (centres unmarked)

>  <pIC50>
7.80

$$$$
>  <COMPOUND>
C[C@@]1(O)COCCN(c2nc(OC[C@]3(CN4CC(CF)C4)CC3(F)F)nc3sc4c(-c5c(C6(F)CC6)c(Cl)cc6[nH]ncc56)nccc4c23)C1

>  <pIC50>
7.55

$$$$
>  <COMPOUND>
C[C@@]1(O)COCCN(c2nc(OC[C@]3(CN4CC5(CC(F)C5)C4)CC3(F)F)nc3sc4c(-c5c(C6CC6)c(Cl)cc6[nH]ncc56)nccc4c23)C1

>  <pIC50>
7.86

$$$$
>  <COMPOUND>
C=C(C)c1c(C)cc2[nH]ncc2c1-c1nncc2c1sc1nc(OC[C@@]34CCCN3C[C@H](F)C4)nc(N3CCOC[C@@](C)(O)C3)c12

>  <pIC50>
7.69

$$$$
>  <COMPOUND>
Cc1cc2c3c(N4CCOC[C@@](C)(O)C4)nc(OC[C@@]45CCCN4C[C@H](F)C5)nc3n(C)c2c(-c2c(C(F)(F)F)c(C)cc3[nH]ncc23)n1 (single isomer, unassigned)

>  <pIC50>
6.27

$$$$
>  <COMPOUND>
Cc1cc2[nH]ncc2c(-c2nncc3c2sc2nc(OC[C@@]45CCCN4C[C@H](F)C5)nc(N4CCOC[C@@](C)(O)C4)c23)c1C(F)(F)F

>  <pIC50>
7.42

$$$$
>  <COMPOUND>
Cc1nc2[nH]ncc2c(-c2nccc3c4c(N5CCOC[C@@](C)(O)C5)nc(OC[C@@]56CCCN5C[C@H](F)C6)nc4n(C)c23)c1C(F)(F)F

>  <pIC50>
6.27

$$$$
>  <COMPOUND>
C[C@@]1(O)COCCN(c2nc(OC[C@]3(CN4CC5(CCOC5)C4)CC3(F)F)nc3sc4c(-c5c(C6(F)CC6)c(Cl)cc6[nH]ncc56)nccc4c23)C1

>  <pIC50>
7.80

$$$$
